# Test system: Plasmodium falciparum
# Method: GSK_TCMDC: Inhibition of Plasmodium falciparum 3D7 in whole red blood cells, using parasite LDH activity as an index of growth. Test compounds present at 2uM
# Assay type: functional
Endpoint Label: Inhibition

{"columns": ["Compound", "Test Result"],
 "data": [
  ["CS(=O)(=O)O.FC(F)(F)COc1ccc2ccccc2c1CNCCCCCCNCc1c(OCC(F)(F)F)ccc2ccccc12", "100%"],
  ["COc1ccc(N2CCN(C(CNC(=O)C3CCCCC3)c3ccc4c(c3)OCO4)CC2)cc1 (centres undefined)", "92%"],
  ["CCc1ccc(-c2cnc(N)c3cc(-c4ccnc(N)n4)ccc23)cc1", "92%"],
  ["COc1cc(C(=O)NC2CCN(Cc3ccccc3)CC2)ccc1-c1nc2cc(Cl)c(Cl)cc2[nH]1", "100%"],
  ["FC(F)(F)c1cccc(C=NNc2nc3ccccc3[nH]2)c1", "100%"],
  ["O=C(N[C@@H](Cc1ccccc1)[C@H](O)CNCCC(F)(F)F)c1cccc(CCC2CC2)c1", "87%"],
  ["COc1cc(F)c2nccc([C@@H](O)CN3CCC(NCc4nc5cccc(F)c5[nH]4)CC3)c2c1.O=C(O)C(=O)O", "99%"],
  ["COc1ccc2[nH]ccc(=NN=Cc3cccc(Cl)c3)c2c1", "100%"],
  ["CCN1CCN(CCCCNc2c3ccccc3nc3ccccc23)CC1.Cl", "100%"]
]}

---

# Inhibition annotations
# Test system: HepG2
# Method: GSK_TCMDC: Percent inhibition of human HepG2 cell line. Test compounds present at 10uM.
# Assay type: functional
Endpoint Label: Inhibition (%)

{"columns": ["Compound", "Unit Text", "Test Result"],
 "data": [
  ["O=C(COc1ccccc1Cc1ccccc1)Nc1cc(Cl)ccc1-n1cncn1", "%", 5],
  ["N#Cc1ccc(-c2nc(CO)c(C(=O)NCCCCN3CCC(c4ccc5c(c4OCC(N)=O)CCCC5)CC3)s2)cc1", "%", 9],
  ["COc1cc(Nc2ccnc3cc(-c4ccncc4)ccc23)cc(OC)c1OC.Cl", "%", 9],
  ["O=C(N[C@@H](Cc1ccccc1)C(=O)NC1CCCCCC1)c1ccc(O)c(-c2cccc(C(F)(F)F)c2)c1", "%", 0],
  ["O=S1(=O)NC2(CCN(CCc3ccc(Cl)cc3)CC2)Nc2cc(F)cc(F)c21", "%", 7],
  ["C=C[C@]1(C)C[C@@H](OC(=O)CNC[C@@H](O)CN2C[C@H](c3ccnc4ccc(OC)nc34)OC2=O)[C@@]2(C)[C@@H]3C(=O)CC[C@@]3(CC[C@@H]2C)[C@@H](C)[C@@H]1O", "%", 0],
  ["COc1cc(-c2nc(-c3ccc(C(=O)c4ccc(F)cc4)cc3)c(-c3ccccc3)[nH]2)cc(OC)c1O", "%", 0],
  ["COc1ccc(CCNc2nc(NCCc3cnc[nH]3)nc(NCc3cccc4ccccc34)n2)cc1OC", "%", 2],
  ["COc1ccc(C[C@H](N)C(=O)N[C@H]2[C@@H](O)[C@H](n3cnc4c(N(C)C)ncnc43)O[C@@H]2CO)cc1 [PUROMYCIN]", "%", 99],
  ["COc1ccc(C(F)(F)F)cc1N1CCN(CCCCNC(=O)c2ccc(NC(=O)c3ccc(Cl)cc3)cc2)CC1", "%", 12],
  ["O=C(NC1CCN(CCC(NC(=O)c2ccccc2)c2ccc(Cl)c(Cl)c2)CC1)c1ccc(Cl)cc1 (stereo not drawn)", "%", 17],
  ["Nc1cccc(CNCc2ccc(-c3ccc(-c4nc5cc(F)ccc5[nH]4)s3)cc2)c1.O=C(O)C(F)(F)F", "%", 12],
  ["CCCCOc1ccc(C(O)C(CN2CCCCC2)c2ccccc2)cc1 (stereo not drawn)", "%", 7],
  ["Cc1noc(C)c1-c1ccc2c(Nc3ccc(Cl)cc3)c(C(N)=O)cnc2c1.Cl", "%", 9],
  ["CCOC(=O)C(C(=O)OCC)c1nc(C)ns1", "%", 10],
  ["N#Cc1ccnc(-c2ccc(CNC3CCN(CC4Cn5c(=O)ccc6ccc(F)c4c65)CC3)cc2)c1.O=C(O)C(F)(F)F (stereo not drawn)", "%", 24],
  ["COc1ccc2[nH]c(C)cc(=NN=Cc3ccccc3)c2c1", "%", 4],
  ["Fc1cc(Cl)ccc1Nc1ccnc2cc(-c3ccc(CN4CCOCC4)o3)ccc12", "%", 33]
]}

---

# Tested on: Plasmodium falciparum
# Method: GSK_TCMDC: Inhibition of Plasmodium falciparum Dd2 in whole red blood cells, using parasite LDH activity as an index of growth. Test compounds present at 2uM
# Format: functional

{"columns": ["Compound", "Inhibition / %"],
 "data": [
  ["CCOc1c(CNCCCNc2cc(O)c3ccccc3n2)cc(I)cc1OC", 6],
  ["Cc1cnc(NCC2CCCCC2)nc1N[C@@H](CO)C(=O)Nc1ccccc1.O=C(O)C(F)(F)F", 56],
  ["CC(CN1CCN(C)CC1)C(=O)Nc1ccc(-c2ccc(-c3nc4ccccc4[nH]3)s2)cc1 (stereo not given)", 79],
  ["C=CCn1c(Sc2ccc(C#N)c([N+](=O)[O-])c2)nnc1-c1cc(OC)cc(OC)c1", 84],
  ["COc1cc(C2CCN(CCCCNC(=O)c3ccc(NC(=O)c4ccc(Cl)c(Cl)c4)cc3)CC2)ccc1OC(C)C", 96]
]}

---

# Tested on: Plasmodium falciparum
# Method: GSK_TCMDC: Inhibition of Plasmodium falciparum 3D7 in whole red blood cells, using parasite LDH activity as an index of growth. Test compounds present at 2uM
# Assay type: functional
Endpoint Label: Inhibition (%)

{"columns": ["Compound", "Test Result"],
 "data": [
  ["CCOc1cc(C)ccc1NC1CCN(CCCCNC(=O)c2ccc(NC(=O)c3ccc(Cl)cc3)cc2)CC1", 100],
  ["COc1ccc(-c2ccc(NC(=O)c3ccc(F)cc3)cc2)cc1CN1CCCN(C)CC1.O=C(O)C(F)(F)F", 98],
  ["NC1CCN(Cc2cccc(-c3csc(-c4nc5ccccc5[nH]4)c3)c2)C1.O=C(O)C(F)(F)F (configuration not stated)", 99],
  ["O=C(Nc1ccc(Cl)c(C(F)(F)F)c1)NC1CCN(CCCCCNC(=O)C2CC2c2ccc(Cl)c(Cl)c2)CC1 (configuration not stated)", 100],
  ["COc1ccc(Cl)cc1NC(=O)Nc1cc(C)nc2ccccc12", 100],
  ["O=C(Cc1cccc(OCCCN(Cc2cccc(C(F)(F)F)c2Cl)CC(c2ccccc2)c2ccccc2)c1)NCc1ccco1", 94],
  ["COc1cc(CN=C(S)NN=C(C)c2ccccn2)cc(OC)c1OC", 99],
  ["Cc1cccc2nc(-c3cccc(-c4ccc(NC(=O)C(C)CN(C)C)cc4)c3)[nH]c12 (configuration not stated)", 100],
  ["Nc1ccc2[nH]cc(C3CCN(CCC4CCN(C(=O)/C=C/c5ccc(Cl)c(Cl)c5)CC4)CC3)c2n1", 100],
  ["Br.CC(=O)CSC(C=Cc1ccc(N(C)C)cc1)=Nc1ccccc1", 81],
  ["O=[N+]([O-])c1ccc(C=NNc2nc3ccccc3[nH]2)cc1", 100],
  ["Cl.O=C(/C=C/c1ccc(Cl)c(Cl)c1)N1CCC(CN2CCC(c3c[nH]c4ncccc34)CC2)CC1", 84],
  ["Cc1[nH]n(-c2cccc(C(F)(F)F)c2)c(=O)c1-c1ccc(Cl)cc1", 98],
  ["O=C(c1cc(-c2cccs2)n[nH]1)N1CCN(S(=O)(=O)c2ccc(Br)cc2)CC1", 93],
  ["O=C(C=Cc1ccc(Cl)c(Cl)c1)NCCCCCN1CCC(CCNC(=O)c2cccc3ccccc23)CC1", 85],
  ["COc1ccc(NC(=O)[C@H](CC(C)C)Nc2ccnc(NCCc3ccc(F)cc3)n2)cc1.O=C(O)C(F)(F)F", 86],
  ["Fc1ccc(COc2ccc(Nc3ncnc4ccc(I)cc34)cc2Cl)cc1", 86],
  ["COc1cccc(Nc2nccc(NCC(O)c3ccc(C(F)(F)F)cc3)n2)c1 (configuration not stated)", 99],
  ["N=C(NCCCCCCNC(=N)NC(=N)c1ccc(Cl)cc1)NC(=N)c1ccc(Cl)cc1", 98],
  ["CC(=O)c1ccc(-c2ccccc2)s1", 92],
  ["Cc1nnc2sc(-c3cccc(NC(=O)c4ccc(N5CCCCC5)c([N+](=O)[O-])c4)c3)nn12", 87],
  ["CC1(C)C(N(O)C(=O)Nc2ccc(Cl)c(Cl)c2)N(c2ccc(Cl)c(Cl)c2)C(=O)N1CCc1ccccc1 (configuration not stated)", 91],
  ["CSc1nccc(-c2ccc3ccnc(N)c3c2)n1", 100],
  ["CCCCN(CCCC)CCCN(CCCN(CCCC)CCCC)c1cc(C)nc(Nc2ccc(Cl)cc2)n1.O=C(O)C(=O)O", 100],
  ["CN(C)CCNC(=O)c1ccc(-c2cnc3ccc(NCc4ccc(Cl)c(Cl)c4)nn23)cc1", 98],
  ["CCOC(=O)c1c(CN2CCCC2)n(-c2ccccc2)c2cc(Br)c(O)cc12", 83],
  ["Cc1ccc2[nH]cc(/C=C/C(=O)NC3CCC(CCN4CCc5ccc(C#N)cc5CC4)CC3)c2c1.Cl (configuration not stated)", 93],
  ["CC1CC(C)CN(CCCNc2ccc(C(=O)Nc3ccc(C(F)(F)F)cc3)cc2[N+](=O)[O-])C1 (configuration not stated)", 100],
  ["O=C(c1cc(-c2ccco2)n[nH]1)N1CCN(S(=O)(=O)c2ccc(Br)cc2)CC1", 95],
  ["CCOc1ccc2[nH]c(-c3ccccc3)cc(=NN=Cc3ccncc3)c2c1", 100],
  ["CN1CCCC(COc2cc3c(cc2Br)CCN3C(=O)Nc2ccc(-c3ccncc3)c(Cl)c2)C1 (configuration not stated)", 100],
  ["CS(=O)(=O)O.FC(F)(F)COc1ccc2ccccc2c1CCNCCCCNCCc1c(OCC(F)(F)F)ccc2ccccc12", 100],
  ["CCCCNS(=O)(=O)c1ccc(NC(=O)c2cc([N+](=O)[O-])ccc2Cl)cc1", 92],
  ["N#Cc1ccc(N(CCOc2ccc(Cl)c(F)c2)Cc2ccccc2C(F)(F)F)cc1C(F)(F)F", 100],
  ["CCNC(=O)CCc1cccc(Br)c1", 89],
  ["COc1ccc2nccc([C@@H](O)CN3CCC(NCc4ccc5c(c4)N(C)C(=O)CO5)CC3)c2c1.O=C(O)C(=O)O", 100],
  ["CN(c1ccc(NC(=O)Nc2cc(C(F)(F)F)ccc2F)cc1)c1ccnc(NCCN2CCCC2)n1.O=C(O)C(F)(F)F", 93]
]}
